Entries and their measured PBM binding z-score follow.
- System: PPARg:RXRa 90nM:30nM, anti-RXR (NR concentration 90 nM, RXRa partner concentration 30 nM)
- RUN DESCRIPTION: PBM binding z-score (relative to random genomic background probes); higher = stronger binding; sequences stand for … in GC…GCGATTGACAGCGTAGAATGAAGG
Reply: number alone, nothing else.

Problem: Look up PPARg:RXRa 90nM:30nM, anti-RXR (NR concentration 90 nM, RXRa partner concentration 30 nM) data: PBM binding z-score of `TCTATTAGTTGATTAGGGCACCCGAAACAGCGGA` , then report it.
Result: 2.91

Problem: Look up PPARg:RXRa 90nM:30nM, anti-RXR (NR concentration 90 nM, RXRa partner concentration 30 nM) data: PBM binding z-score of `CCTACTGGGCCAAAGGTAATTGATTCCAATGCTC` , then report it.
Result: 8.72

Problem: Look up PPARg:RXRa 90nM:30nM, anti-RXR (NR concentration 90 nM, RXRa partner concentration 30 nM) data: PBM binding z-score of `GGAACGAGGGCAAAGTTGATAGCCTCTGTCGACG` , then report it.
Result: 7.65

Problem: Look up PPARg:RXRa 90nM:30nM, anti-RXR (NR concentration 90 nM, RXRa partner concentration 30 nM) data: PBM binding z-score of `TCTTCTAGATCAACAGGAGGTTAAGAAAGATCGA` , then report it.
Result: 2.67

Problem: Look up PPARg:RXRa 90nM:30nM, anti-RXR (NR concentration 90 nM, RXRa partner concentration 30 nM) data: PBM binding z-score of `GGAACGAGGGCATTCAAGTTGATAGCATGGCGAT` , then report it.
Result: 0.427

Problem: Look up PPARg:RXRa 90nM:30nM, anti-RXR (NR concentration 90 nM, RXRa partner concentration 30 nM) data: PBM binding z-score of `GATACAGGGTCAAGGCCAGTGTACGCGTATTGAT` , then report it.
Result: 4.1

Problem: Look up PPARg:RXRa 90nM:30nM, anti-RXR (NR concentration 90 nM, RXRa partner concentration 30 nM) data: PBM binding z-score of `CGAACTAGGTCATCCACGACAGTGAATACATTGA` , then report it.
Result: 5.93

Problem: Look up PPARg:RXRa 90nM:30nM, anti-RXR (NR concentration 90 nM, RXRa partner concentration 30 nM) data: PBM binding z-score of `CAAACTAGGTTAAGGTCAAAGTCGGTTTGTGCCA` , then report it.
Result: 7.2

Problem: Look up PPARg:RXRa 90nM:30nM, anti-RXR (NR concentration 90 nM, RXRa partner concentration 30 nM) data: PBM binding z-score of `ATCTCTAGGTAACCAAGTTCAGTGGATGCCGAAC` , then report it.
Result: 0.555

Problem: Look up PPARg:RXRa 90nM:30nM, anti-RXR (NR concentration 90 nM, RXRa partner concentration 30 nM) data: PBM binding z-score of `GATACAGGTTCAAGGCCAGAGTACGCGTATTGAT` , then report it.
Result: 1.19

Problem: Look up PPARg:RXRa 90nM:30nM, anti-RXR (NR concentration 90 nM, RXRa partner concentration 30 nM) data: PBM binding z-score of `ACAGACAGGTGATGAAGGTAACTCTGGCTATCAT` , then report it.
Result: 0.132

Problem: Look up PPARg:RXRa 90nM:30nM, anti-RXR (NR concentration 90 nM, RXRa partner concentration 30 nM) data: PBM binding z-score of `TCTTGTAGATCAAAGGTTAGGAAAGCCGAAGCCT` , then report it.
Result: 9.05

Problem: Look up PPARg:RXRa 90nM:30nM, anti-RXR (NR concentration 90 nM, RXRa partner concentration 30 nM) data: PBM binding z-score of `CAAATTAGGTCACGAAAGGTCAAAGTCGAATGAC` , then report it.
Result: 8.69

Problem: Look up PPARg:RXRa 90nM:30nM, anti-RXR (NR concentration 90 nM, RXRa partner concentration 30 nM) data: PBM binding z-score of `TCTTGTAGATCAGCAGGTTAAGTAAGCTGGCCAA` , then report it.
Result: 2.04

Problem: Look up PPARg:RXRa 90nM:30nM, anti-RXR (NR concentration 90 nM, RXRa partner concentration 30 nM) data: PBM binding z-score of `ATCTCTAGGTAACAAGTTCTGTGAAAGAGAGGAC` , then report it.
Result: 1.08

Problem: Look up PPARg:RXRa 90nM:30nM, anti-RXR (NR concentration 90 nM, RXRa partner concentration 30 nM) data: PBM binding z-score of `TTACCAAGGTGAAAGGGCGTTGATGCACGCCTTG` , then report it.
Result: 5.82

----------
- System: RARg homodimer (NR concentration 270 nM)
- RUN DESCRIPTION: PBM binding z-score (relative to random genomic background probes); higher = stronger binding; sequences stand for … in GC…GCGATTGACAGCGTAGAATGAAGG
Values of PBM binding z-score greater than or equal to 2 map to T; values below map to F.

Use these answered entries as a reference point.
Problem: Determine whether this sequence has PBM binding z-score no lower than 2: `GCTCGGAGGACAAGCTCAGAGCTTTGTCCGTAGA`
Result: F

Problem: Determine whether this sequence has PBM binding z-score no lower than 2: `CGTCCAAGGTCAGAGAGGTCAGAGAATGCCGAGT`
Result: T

Problem: Determine whether this sequence has PBM binding z-score no lower than 2: `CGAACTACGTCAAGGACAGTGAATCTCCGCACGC`
Result: F

Problem: Determine whether this sequence has PBM binding z-score no lower than 2: `CCGACTGGTGCAAAGGTTACCATACTCAGTACGA`
Result: F

---
Problem: Determine whether this sequence has PBM binding z-score no lower than 2: `CGAACTAGGTCAAGGATAGTGAATCTCCGCACGC`
Result: T

Problem: Determine whether this sequence has PBM binding z-score no lower than 2: `CATACAGGGTCAGCTAGGCCAAAGTAGGGACGGC`
Result: T

Problem: Determine whether this sequence has PBM binding z-score no lower than 2: `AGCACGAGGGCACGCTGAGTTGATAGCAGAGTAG`
Result: T

Problem: Determine whether this sequence has PBM binding z-score no lower than 2: `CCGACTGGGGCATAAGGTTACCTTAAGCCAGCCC`
Result: F

Problem: Determine whether this sequence has PBM binding z-score no lower than 2: `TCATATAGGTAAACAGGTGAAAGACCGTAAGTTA`
Result: F

Problem: Determine whether this sequence has PBM binding z-score no lower than 2: `TCTTGTAGATCGACAGGAGGTTAAGAAAGATCGA`
Result: F

----------
- Tested on: RARg:RXRa (NR concentration 270 nM, RXRa partner concentration 90 nM)
- RUN DESCRIPTION: PBM binding z-score (relative to random genomic background probes); higher = stronger binding; sequences stand for … in GC…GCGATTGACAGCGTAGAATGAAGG
Values of PBM binding z-score greater than or equal to 4 map to 1; values below map to 0.

Problem: Determine whether this sequence has PBM binding z-score no lower than 4: `CCTACTGGGCCACGGTCATTGATCAGTCAAAGCA`
Result: 0

---
Problem: Determine whether this sequence has PBM binding z-score no lower than 4: `TTACCTAGGTGAGCTGAGGTCGTTGATCCAACTC`
Result: 0

Problem: Determine whether this sequence has PBM binding z-score no lower than 4: `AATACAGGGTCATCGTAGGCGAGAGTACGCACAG`
Result: 1

Problem: Determine whether this sequence has PBM binding z-score no lower than 4: `ACTAGCAGGCCAAGGGTCACTCAAGATTAGTCCG`
Result: 1

Problem: Determine whether this sequence has PBM binding z-score no lower than 4: `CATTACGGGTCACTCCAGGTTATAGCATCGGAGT`
Result: 1

Problem: Determine whether this sequence has PBM binding z-score no lower than 4: `AATACAGGGGCATCGTAGGCCAGAGTACGCACAG`
Result: 0

Problem: Determine whether this sequence has PBM binding z-score no lower than 4: `AGAATTAGGTTATTAAGATCAGGGAATTGCGGTC`
Result: 0

Problem: Determine whether this sequence has PBM binding z-score no lower than 4: `TCTCGGGGGACACGAAAGGTCAGAGCTCGACATC`
Result: 1

Problem: Determine whether this sequence has PBM binding z-score no lower than 4: `AATACAGGGTCATCGTAGGCCACAGTACGCACAG`
Result: 1

Problem: Determine whether this sequence has PBM binding z-score no lower than 4: `CCTAGCAGGCCAGGGTCACTCATGCATTTCGCTT`
Result: 0

Problem: Determine whether this sequence has PBM binding z-score no lower than 4: `CAAACTAGGTCAAGAGGTCATAGTCCGCTTCCCG`
Result: 1

Problem: Determine whether this sequence has PBM binding z-score no lower than 4: `GGAACGAGGGCATTCGAGTTTATAGCATGGCGAT`
Result: 0
